target: human F508del-CFTR (Homo sapiens, UniProt P13569, DEL508-508); assay: F508del-CFTR cell surface expression (corrector activity), DiscoveRx ß-galactosidase complementation chemiluminescence assay in recombinant U2OS cell line; settings: EC50, F508del-CFTR cell surface expression, U2OS cell line, 16h compound incubation; geomean values;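 note: U2OS cells co-expressing ProLink-tagged F508del-CFTR and a membrane-anchored enzyme acceptor, where more surface CFTR restores β-galactosidase activity measured by chemiluminescence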
Sequence (P13569 with tags, fused parts or gaps DEL508-508): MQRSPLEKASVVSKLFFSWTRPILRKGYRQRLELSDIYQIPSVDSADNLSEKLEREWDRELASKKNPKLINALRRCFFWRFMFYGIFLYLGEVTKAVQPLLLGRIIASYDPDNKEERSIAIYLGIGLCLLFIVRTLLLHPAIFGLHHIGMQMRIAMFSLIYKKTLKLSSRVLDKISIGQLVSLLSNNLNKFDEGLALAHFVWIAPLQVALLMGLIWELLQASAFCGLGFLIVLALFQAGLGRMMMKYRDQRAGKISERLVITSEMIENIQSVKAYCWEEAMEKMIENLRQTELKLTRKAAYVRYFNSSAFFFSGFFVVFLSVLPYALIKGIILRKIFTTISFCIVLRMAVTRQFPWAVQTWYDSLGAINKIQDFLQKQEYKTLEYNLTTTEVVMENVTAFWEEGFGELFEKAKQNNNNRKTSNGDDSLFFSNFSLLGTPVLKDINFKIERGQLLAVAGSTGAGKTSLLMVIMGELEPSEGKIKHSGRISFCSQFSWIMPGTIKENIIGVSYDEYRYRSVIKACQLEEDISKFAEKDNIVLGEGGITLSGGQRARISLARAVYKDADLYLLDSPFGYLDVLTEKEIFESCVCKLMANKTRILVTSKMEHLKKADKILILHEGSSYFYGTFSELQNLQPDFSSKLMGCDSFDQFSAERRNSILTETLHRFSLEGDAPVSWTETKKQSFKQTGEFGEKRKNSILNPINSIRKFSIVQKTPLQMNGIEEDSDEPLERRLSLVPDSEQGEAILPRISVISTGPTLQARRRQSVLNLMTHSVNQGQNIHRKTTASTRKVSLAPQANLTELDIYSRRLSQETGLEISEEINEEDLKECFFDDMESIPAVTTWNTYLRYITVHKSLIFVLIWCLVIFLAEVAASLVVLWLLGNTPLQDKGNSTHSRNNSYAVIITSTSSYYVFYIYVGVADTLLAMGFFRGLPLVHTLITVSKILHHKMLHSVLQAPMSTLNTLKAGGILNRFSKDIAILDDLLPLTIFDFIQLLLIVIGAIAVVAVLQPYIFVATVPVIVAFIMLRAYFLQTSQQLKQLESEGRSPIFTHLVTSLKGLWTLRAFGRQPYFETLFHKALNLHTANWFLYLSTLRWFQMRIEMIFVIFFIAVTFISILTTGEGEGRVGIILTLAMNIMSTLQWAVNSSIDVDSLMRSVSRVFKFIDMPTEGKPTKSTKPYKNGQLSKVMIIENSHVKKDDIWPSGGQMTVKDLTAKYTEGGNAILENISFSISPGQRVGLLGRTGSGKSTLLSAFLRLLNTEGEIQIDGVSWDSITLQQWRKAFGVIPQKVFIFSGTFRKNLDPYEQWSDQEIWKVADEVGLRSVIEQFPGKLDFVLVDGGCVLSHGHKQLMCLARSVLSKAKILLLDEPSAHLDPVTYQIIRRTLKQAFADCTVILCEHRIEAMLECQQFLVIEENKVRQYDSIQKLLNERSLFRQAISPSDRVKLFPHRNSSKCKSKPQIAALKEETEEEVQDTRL
Please respond with reported EC50 for every item in the list.
All answers are understood in nM, so give the number only.

Hi! What's the reported EC50 for CC(C)C[C@H]1C(=O)N(C)CC(=O)N[C@H](Cc2ccccc2)COc2ccc3ccccc3c2C(=O)N[C@H](C(=O)NCCc2ccc3c(c2)OCO3)CC(=O)N1C [Example 269] on human F508del-CFTR (Homo sapiens, UniProt P13569, DEL508-508)?
350

Hi! What's the reported EC50 for COc1cccc2c1C(=O)N[C@H](C(=O)NCCc1nc3ccccc3o1)CC(=O)N(C)[C@@H](CC(C)C)C(=O)N(CCC1CCCCC1)CC(=O)N[C@H](Cc1ccccc1)CO2 (mixture of isomers) [Example 16] on human F508del-CFTR (Homo sapiens, UniProt P13569, DEL508-508)?
269

Hi! What's the reported EC50 for CC(C)C[C@H]1C(=O)N2CCCC[C@@H]2C(=O)N[C@H](Cc2ccccc2)COc2cnc3ccccc3c2C(=O)N[C@H](C(=O)NCCc2cc(C(C)(C)C)on2)CC(=O)N1C [Example 90] on human F508del-CFTR (Homo sapiens, UniProt P13569, DEL508-508)?
364

Hi! What's the reported EC50 for CC(C)C[C@H]1C(=O)N2CCCC[C@@H]2C(=O)N[C@H](Cc2ccccc2)COc2ccc3ncn(C)c3c2C(=O)N[C@H](C(=O)NCCc2ccc3c(c2)OCO3)CC(=O)N1C [Example 329] on human F508del-CFTR (Homo sapiens, UniProt P13569, DEL508-508)?
796

Hi! What's the reported EC50 for COc1cccc2c1C(=O)N[C@H](C(=O)NCCc1cccs1)CC(=O)N(C)[C@@H](CC(C)C)C(=O)N(CCC1CCCCC1)CC(=O)N[C@H](Cc1ccccc1)CO2 [Example 206] on human F508del-CFTR (Homo sapiens, UniProt P13569, DEL508-508)?
272

Source: patent US20240208992A1
